Biological target: T1, his-tagged human TIGIT (Acro Biosystems #TIT-H52H3) (human, UniProt Q495A1 22-141)
T1 construct: Bought protein; also called His-tagged-TIGIT (human); not shown: his tag
T1 sequence (looked up): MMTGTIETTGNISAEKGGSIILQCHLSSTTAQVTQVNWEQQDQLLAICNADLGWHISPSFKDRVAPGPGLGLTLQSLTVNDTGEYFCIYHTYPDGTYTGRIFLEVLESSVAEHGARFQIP
Experiment: ELISA, coated His-TIGIT, 1 ug/ml
Recorded Elisa OD450 for the following binders
Express the result in OD450 but write the number alone.

# binder, measured
rows = [
    ("43352p1.D11 (scFv, V domains shown) VH: DVQLVESGGGVVRPGESLRLSCAASGFTFSSHAMSWVRQAPGEGLEWVSLISGNGVSAYYADSVKGRFTISRDNSKNTLYLQMNSLSAEDTAIYYCARGTYLISFFDYWGLGTLVTVSS VL: QSVLTQPPSASGTPGQRVTISCSGISAKIGNNYVSWYQQLPGTAPKLLIYFNNQRPSGVPDRFSGSKSGTSASLAISGLQSEDEADYYCASWDDSLNAWLFGGGTKLTVL", 2.15),
    ("43586p2.C01 (scFv, V domains shown) VH: EVQLLESGGGLVQPGGSLRLSCAASGFTFSDYYMNWVRQAPGKGLEYVASINWNGGTTYYADSVKGRFTISRDNSKNTLYLQMNSLRAEDTAVYYCAKDQNWNFYYGMDVWGQGTTVTVSS VL: QSVLTQPPSASGTPGQRVTISCSGGSSNIGNNFVSWYQQLPGTAPKLLIYNEIKRPSGVPDRFSASKSGTSASLAISGLQSEDEADYYCASWDGSLRGWVFGGGTKLTVL", 1.81),
    ("43586p2.E08 (scFv, V domains shown) VH: EVQLLESGGDLVQPGGSLRLSCAASGFTFDDYVMSWVRQAPGKGLEWVSLINWNGDKTYYADSVKDRFTISRDNSKNTLYLQMNSLRAEDTAVYYCARHWIVFQYGLDVWGQGTTVTVSS VL: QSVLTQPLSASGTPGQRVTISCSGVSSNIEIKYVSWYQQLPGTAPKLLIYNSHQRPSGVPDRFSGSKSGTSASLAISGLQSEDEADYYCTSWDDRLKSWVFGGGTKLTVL", 1.46),
    ("43586p1.2.E4 (scFv, V domains shown) VH: EVQLLESGGGLVQPGGSLRLSCAASGFTFSDYLMTWVRQAPGKGLEWVSTITWDGDRTYYADSVKGRFTISRDNSKNTLYLQMNSLRAEDTAVYYCAKHWTVFQYGMDVWGQGTTVTVSS VL: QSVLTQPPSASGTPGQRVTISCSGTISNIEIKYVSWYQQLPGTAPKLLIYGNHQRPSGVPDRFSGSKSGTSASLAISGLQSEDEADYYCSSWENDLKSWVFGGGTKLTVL", 2.09),
]

Consider the additional binder presented here.
Ask: Find the recorded Elisa OD450 belonging to 43586p1.2.A4 (scFv, V domains shown) VH: EVQLLESGGGLVQPGGSLRLSCAASGFTVSDHHMSWVRQAPGKGLEWVSGIDPGGKTYYVDSVKGRFTISRDNSKNTLYLQMNSLRAEDTAVYYCAREQYDWNDDMDVWGQGTTVTVSS VL: QSVLTQPPSASGTPGQRVTISCSGSRSNVGDHYVSWYQQFPGTAPKLLIYANYQRPSGVPDRFSGSKSGTSASLAISGLQSEDEADHYCASWDASLNVWVFGGGTKLTVL and report it.
Result: 1.69
